Target: fusion protein PRW
Sequence (chain, as listed by the source): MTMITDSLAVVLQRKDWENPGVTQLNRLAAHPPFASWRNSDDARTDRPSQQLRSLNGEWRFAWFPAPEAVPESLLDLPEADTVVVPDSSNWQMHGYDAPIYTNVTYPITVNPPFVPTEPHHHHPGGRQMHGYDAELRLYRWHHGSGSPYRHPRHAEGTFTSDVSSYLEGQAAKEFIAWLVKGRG
METRIC NAME: relative cleavage efficiency

OmpT protease variant OmpT D97Y (protein) STETLSFTPDNINADISLGTLSGKTKERVYLAEEGGRKVSQLDWKFNNAAIIKGAINWDLMPQISIGAAGWTTLGSRGGNMVDQDWMDSSNPGTWTYESRHPDTQLNYANEFDLNIKGWLLNEPNYRLGLMAGYQESRYSFTARGGSYIYSSEEGFRDDIGSFPNGERAIGYKQRFKMPYIGLTGSYRYEDFELGGTFKYSGWVESSDNDEHYDPGKRITYRSKVKDQNYYSVAVNAGYYVTPNAKVYVEGAWNRVTNKKGNTSLYDHNNNTSDYSKNGAGIENYNFITTAGLKYTF : less than 3.0%
OmpT protease variant OmpT D97M (protein) STETLSFTPDNINADISLGTLSGKTKERVYLAEEGGRKVSQLDWKFNNAAIIKGAINWDLMPQISIGAAGWTTLGSRGGNMVDQDWMDSSNPGTWTMESRHPDTQLNYANEFDLNIKGWLLNEPNYRLGLMAGYQESRYSFTARGGSYIYSSEEGFRDDIGSFPNGERAIGYKQRFKMPYIGLTGSYRYEDFELGGTFKYSGWVESSDNDEHYDPGKRITYRSKVKDQNYYSVAVNAGYYVTPNAKVYVEGAWNRVTNKKGNTSLYDHNNNTSDYSKNGAGIENYNFITTAGLKYTF : less than 3%
OmpT protease variant OmpT D97T (protein) STETLSFTPDNINADISLGTLSGKTKERVYLAEEGGRKVSQLDWKFNNAAIIKGAINWDLMPQISIGAAGWTTLGSRGGNMVDQDWMDSSNPGTWTTESRHPDTQLNYANEFDLNIKGWLLNEPNYRLGLMAGYQESRYSFTARGGSYIYSSEEGFRDDIGSFPNGERAIGYKQRFKMPYIGLTGSYRYEDFELGGTFKYSGWVESSDNDEHYDPGKRITYRSKVKDQNYYSVAVNAGYYVTPNAKVYVEGAWNRVTNKKGNTSLYDHNNNTSDYSKNGAGIENYNFITTAGLKYTF : less than 3%
OmpT protease variant OmpT D97I (protein) STETLSFTPDNINADISLGTLSGKTKERVYLAEEGGRKVSQLDWKFNNAAIIKGAINWDLMPQISIGAAGWTTLGSRGGNMVDQDWMDSSNPGTWTIESRHPDTQLNYANEFDLNIKGWLLNEPNYRLGLMAGYQESRYSFTARGGSYIYSSEEGFRDDIGSFPNGERAIGYKQRFKMPYIGLTGSYRYEDFELGGTFKYSGWVESSDNDEHYDPGKRITYRSKVKDQNYYSVAVNAGYYVTPNAKVYVEGAWNRVTNKKGNTSLYDHNNNTSDYSKNGAGIENYNFITTAGLKYTF : less than 3.0%
OmpT protease (wild-type, E. coli mature OmpT protease) (protein) STETLSFTPDNINADISLGTLSGKTKERVYLAEEGGRKVSQLDWKFNNAAIIKGAINWDLMPQISIGAAGWTTLGSRGGNMVDQDWMDSSNPGTWTDESRHPDTQLNYANEFDLNIKGWLLNEPNYRLGLMAGYQESRYSFTARGGSYIYSSEEGFRDDIGSFPNGERAIGYKQRFKMPYIGLTGSYRYEDFELGGTFKYSGWVESSDNDEHYDPGKRITYRSKVKDQNYYSVAVNAGYYVTPNAKVYVEGAWNRVTNKKGNTSLYDHNNNTSDYSKNGAGIENYNFITTAGLKYTF : less than 3%
OmpT protease variant OmpT D97G (protein) STETLSFTPDNINADISLGTLSGKTKERVYLAEEGGRKVSQLDWKFNNAAIIKGAINWDLMPQISIGAAGWTTLGSRGGNMVDQDWMDSSNPGTWTGESRHPDTQLNYANEFDLNIKGWLLNEPNYRLGLMAGYQESRYSFTARGGSYIYSSEEGFRDDIGSFPNGERAIGYKQRFKMPYIGLTGSYRYEDFELGGTFKYSGWVESSDNDEHYDPGKRITYRSKVKDQNYYSVAVNAGYYVTPNAKVYVEGAWNRVTNKKGNTSLYDHNNNTSDYSKNGAGIENYNFITTAGLKYTF : less than 3.0%
OmpT protease variant OmpT D97R (protein) STETLSFTPDNINADISLGTLSGKTKERVYLAEEGGRKVSQLDWKFNNAAIIKGAINWDLMPQISIGAAGWTTLGSRGGNMVDQDWMDSSNPGTWTRESRHPDTQLNYANEFDLNIKGWLLNEPNYRLGLMAGYQESRYSFTARGGSYIYSSEEGFRDDIGSFPNGERAIGYKQRFKMPYIGLTGSYRYEDFELGGTFKYSGWVESSDNDEHYDPGKRITYRSKVKDQNYYSVAVNAGYYVTPNAKVYVEGAWNRVTNKKGNTSLYDHNNNTSDYSKNGAGIENYNFITTAGLKYTF : less than 3.0%
OmpT protease variant OmpT D97F (protein) STETLSFTPDNINADISLGTLSGKTKERVYLAEEGGRKVSQLDWKFNNAAIIKGAINWDLMPQISIGAAGWTTLGSRGGNMVDQDWMDSSNPGTWTFESRHPDTQLNYANEFDLNIKGWLLNEPNYRLGLMAGYQESRYSFTARGGSYIYSSEEGFRDDIGSFPNGERAIGYKQRFKMPYIGLTGSYRYEDFELGGTFKYSGWVESSDNDEHYDPGKRITYRSKVKDQNYYSVAVNAGYYVTPNAKVYVEGAWNRVTNKKGNTSLYDHNNNTSDYSKNGAGIENYNFITTAGLKYTF : less than 3%
